System: T. cruzi amastigotes in H9c2 cells
Experiment: Image-based infection assay, intracellular amastigotes in H9c2 host cells
Type: cell-based
Conditions: Trypanosoma cruzi, H9c2; 72 h, image-based, at least two biological replicates; read-out: EC50 against T. cruzi amastigotes in H9c2 cells
EC50 reference
Give the quantity in nM, number only.

Example cases with answers are listed next.
Requested field: EC50. Item: COc1c(C)c2c(c(O)c1C/C=C(\C)CCC(=O)OCCN1CCOCC1)C(=O)OC2 [Mycophenolate mofetil]
1500

# EC50 lookup, item COc1cc(NC(=O)Nc2cccc(CNC(=O)O[C@H]3CCOC3)c2)ccc1-c1cnco1 [(S)-Merimepodib]
4800

Report EC50 for O=C(Cn1ccnc1[N+](=O)[O-])NCc1ccccc1 please.
3000

Below: the item to evaluate.
Which EC50 is listed for COc1cc(NC(=O)Nc2cccc(CNC(=O)O[C@@H]3CCOC3)c2)ccc1-c1cnco1 [(R)-Merimepodib] ?
3000
